I'd appreciate it if you could supply fold activation, T-cell proliferation, 22 nM, non-anchored, donor 2 values for the items below.
Molecular target: T1, human GITR (amino acids M1-V241, NCBI Accession #NP_004186.1) expressed on cells (human, UniProt Q9Y5U5 26-241)
T1 sequence: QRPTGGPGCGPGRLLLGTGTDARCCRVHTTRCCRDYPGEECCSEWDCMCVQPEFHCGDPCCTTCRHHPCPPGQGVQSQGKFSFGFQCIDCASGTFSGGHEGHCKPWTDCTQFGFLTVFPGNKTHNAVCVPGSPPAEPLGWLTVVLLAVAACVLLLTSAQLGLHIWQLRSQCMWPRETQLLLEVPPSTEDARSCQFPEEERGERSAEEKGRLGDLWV
Experiment: cell-based or functional assay
Numbers only, in fold.

H4H14470P (antibody, human IgG4, V domains shown, human IgG4 (H4H)) VH: QVQLVESGGGVVQPGRSLRLSCAASGFTVRNYGMHWVRQAPGKGLEWVAVIWYDGSNKYYADSVKGRFTISRDNSKNTLFLQMNSLRAEDTAVYYCARGGELVRGDYYYGMDVWGQGTTVTVSS VL: DIQMTQSPSSLSASVGDRVTITCRASQGIRNDLGWYQQKPGKAPKRLIYGASSLQSGVPSRFSGSGSGTEFTLTISSLQPEDFATYYCLQHNSYPYTFGQGTKLEIK	0.9

Can you give me fold activation, T-cell proliferation, 22 nM, non-anchored, donor 2 for all of these, one by one?
1. H4H14525P (antibody, human IgG4, V domains shown, human IgG4 (H4H)) VH: QVQLVESGGGVVQPGRSLRLSCAASGFTFSSYGMHWVRQAPGKGLEWVAVIWYVGSNKYYGESVKGRFTISRDNSKNTLYLQMNSLRDEDTAIYYCARGGQLGSFYYYGMDVWGQGTTVTVSS VL: DIQMTQSPSSLSASVGDRVTITCRASQGIRNDLGWYQQKPGKAPKRLIYDVSSLQSGVPSRFSGSGSGTEFTLTISSLQPEDLATYYCLQHNSYPWTFGQGTKVEIK
2. H4H14469P (antibody, human IgG4, V domains shown, human IgG4 (H4H)) VH: QVQLVESGGGVVQPGGSLRLSCAVSGFTFSDYGMHWVRQVPGAGLEWVAVIYYEGSNKYYADSVKGRFTISRDNSKNTLYLQMNSLRVEDTSMYFCARGPLLGGNFYSYLMDVWGQGTTVTVSS VL: AIQMTQSPSSLSASVGDRVTITCRASQGIRNGLGWYQQKPGKAPKLLIYTASSLQSGVPSRFSGSGSGTDFTLTISSLQPEDFATYYCLQDYNYPFSFGPGTKVDIK
3. H4H14516P (antibody, human IgG4, V domains shown, human IgG4 (H4H)) VH: EVQLVESGGGLVQPGGSLRLSCAASGFTFSNYEMYWVRQAPGKGLEWVSYISSSGTTIYYADSVKGRFSVSRENARSSLYLQMNSLRVEDSAVYFCAKYNWNSFYGLDVWGQGTTVTVSS VL: AIQMTQSPSSLSASVGDRVTITCRASQDIRNDLGWYQQKPGKAPKLLISAASSLQGGVPSRFSGSGSGTDFTLTISSLQPADFATYYCLQEYNYALTFGGGTKVEIK
4. H4H14476P (antibody, human IgG4, V domains shown, human IgG4 (H4H)) VH: QVQLVESGGGVVQPGRSLRLSCAASGFTFSNYGIHWVRQPPGQGLEWVAVIWYAGSNKFYADSVKGRFTISRDNSKNSAYLQMNSLRAEDTAVYYCARAPLGYYYYGMDVWGQGTTVTVSS VL: DIQMTQSPSSLSASVGDRVTITCRASQGIRNDLGWYQQKPGKAPKRLIYDASSLESGVPSRFSGSGSGTEFTLTISSLQPEDFATYYCLQHNSYPWTFGQGTKVEIK

Result:
[1, 0.8, 1.2, 0.9]

# batch size: 2; output fold activation, T-cell proliferation, 22 nM, non-anchored, donor 2 per entry
1. H4H14475P (antibody, human IgG4, V domains shown, human IgG4 (H4H)) VH: QVQLVESGGGVVQPGRSLRLSCAASGTIFSTHGMHWVRQAPGKGLEWVAVISYDGNKKYYAGSVKGRFTISRDNSKNTLYLQMNDVRSEDTAVYHCTTDITGITDYWGQGTLVTVSS VL: DIQMTQSPSSLSASVGDRVTITCRASQGIGNDLGWYQQKLGKAPKRLIYAASSLESGVPSRFSGSGSGTEFILTISSLQAEDFATYYCLQHNGFPTFGQGTKVEIK
2. H4H14528P (antibody, human IgG4, V domains shown, human IgG4 (H4H)) VH: QVQLVESGGGVVQPGRSLRISCAASGFTFNNYGFHWVRQAPGRGLEWVAVIWYSGSNKYYGDSVKGRFTISRDNSKNILYLQMNSLRAEDTAIYYCARFPFSSSWLLDYWGQGTLVTVSS VL: DIQLTQSPSFLSASVGDRVTFTCWASQGISDYLAWYQQKPGKAPKLLIYAASALQSGVPSRFSGSGSGTEFTLTVSSLQPEDFATYYCQQLNSYPFTFGPGTKVDIK

Result:
1: 1.1; 2: 0.8
